The measurements presented in this section are drawn from patent US8455495B2.

# target-desc: recombinant human p38α (Homo sapiens)
# Sequence (Q16539 whole entry): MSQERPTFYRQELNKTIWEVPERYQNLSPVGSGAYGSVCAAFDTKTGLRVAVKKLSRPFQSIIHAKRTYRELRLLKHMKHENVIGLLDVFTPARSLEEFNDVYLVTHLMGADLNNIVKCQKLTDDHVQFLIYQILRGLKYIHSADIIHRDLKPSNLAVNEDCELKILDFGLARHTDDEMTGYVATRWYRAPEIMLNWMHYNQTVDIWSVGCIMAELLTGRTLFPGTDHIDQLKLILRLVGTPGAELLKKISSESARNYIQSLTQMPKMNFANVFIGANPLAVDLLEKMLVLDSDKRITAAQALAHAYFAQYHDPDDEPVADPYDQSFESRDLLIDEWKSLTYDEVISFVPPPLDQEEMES
# assay-details: Purified and activated recombinant human p38α HTRF assay
# setup-conditions: 1 nM p38α, 50 μM ATP, GST-ATF2 substrate, read-out: p38a IC50
# Method: Purified and Activated Recombinant Human p38α Assay Kinase Reaction Buffer: […] HTRF Detection Buffer: […] Serial Dilution of Compounds: […] […] In the absence of substrate, the background was measured as LO control. […] After 60 minutes incubation at room temperature, the assay plate was read in a Discovery Plate Reader. […] All results were expressed as the mean±the standard error of the mean. […]
reported-metric: pIC50
Answers are plain numbers, as −log10 of the molar value.

Sample answers from the record:
>  <structure>
Cc1ccc(C(=O)NC2CC2)cc1-c1cc2cnnc(-c3ccccc3Cl)c2n(C)c1=O

>  <reported-metric>
pIC50

>  <reported>
8.80

$$$$
>  <structure>
CCn1c(=O)c(-c2cc(C(=O)NC3CC3)cc(F)c2C)cc2cnnc(-c3ccc(F)cc3F)c21

>  <reported-metric>
pIC50

>  <reported>
8.89

$$$$
>  <structure>
Cc1cc(S(C)(=O)=O)ccc1-c1nncc2cc(-c3cc(C(=O)NC4CC4)cc(F)c3C)c(=O)n(C)c12

>  <reported-metric>
pIC50

>  <reported>
8.60

$$$$

// next item, pIC50 requested
Ask: State the recorded pIC50 for this entry: Cc1c(F)cc(C(=O)NC2CC2)cc1-c1cc2cnnc(-c3ccc(F)cc3F)c2n(C)c1=O
Result: 8.77
